test system: Streptococcus pneumoniae; assay: Antibacterial activity against Streptococcus pneumoniae by CLSI M07-A8 method; type: functional, organism-based
Active and inactive are the calls of the source. No rule for the calls is given here.
measurement label: Activity

// returns Activity for CNC(=O)C[C@@H]1NC(=O)c2csc(n2)-c2ccc(-c3nc(NC(=O)OCCCC(=O)O)cs3)nc2-c2csc(n2)-c2csc(n2)[C@H]([C@@H](O)c2ccccc2)NC(=O)CNC(=O)c2nc(sc2COC)[C@H](C(C)C)NC(=O)c2nc1sc2C with Streptococcus pneumoniae; value = Active

// returns Activity for CNC(=O)C[C@@H]1NC(=O)c2csc(n2)-c2ccc(-c3nc(NC(=O)O[C@H]4CC[C@H](N)CC4)cs3)nc2-c2csc(n2)-c2csc(n2)[C@H]([C@@H](O)c2ccccc2)NC(=O)CNC(=O)c2nc(sc2COC)[C@H](C(C)C)NC(=O)c2nc1sc2C with Streptococcus pneumoniae; value = Active

###

experiment: Cmax in Sprague-Dawley rat at 25 mg/kg, iv bolus; assay type: ADME, organism-based; parameters: dose 25 mg/kg, route intravenous; conditions: in vivo
measurement label: Cmax
Number plus unit, in that order.

Lookup result for CNC(=O)C[C@@H]1NC(=O)c2csc(n2)-c2ccc(-c3nc(NC(=O)[C@H]4CC[C@H](C(=O)O)CC4)cs3)nc2-c2csc(n2)-c2csc(n2)[C@H]([C@@H](O)c2ccccc2)NC(=O)CNC(=O)c2nc(sc2COC)[C@H](C(C)C)NC(=O)c2nc1sc2C ; measured Cmax: 320 µM

###

system: Staphylococcus aureus; test: Antibacterial activity against methicillin-resistant Staphylococcus aureus isolate A4.018 by CLSI M07-A8 method; type: functional
measurement label: MIC (µg/mL)
Write the answer as a number in µg/mL, unit excluded.

Lookup result for CNC(=O)C[C@@H]1NC(=O)c2csc(n2)-c2ccc(-c3nc(NC(=O)NCCCC(=O)O)cs3)nc2-c2csc(n2)-c2csc(n2)[C@H]([C@@H](O)c2ccccc2)NC(=O)CNC(=O)c2nc(sc2COC)[C@H](C(C)C)NC(=O)c2nc1sc2C ; measured MIC: 1

Lookup result for CNC(=O)C[C@@H]1NC(=O)c2csc(n2)-c2ccc(-c3nc(NC(=O)OCCN)cs3)nc2-c2csc(n2)-c2csc(n2)[C@H]([C@@H](O)c2ccccc2)NC(=O)CNC(=O)c2nc(sc2COC)[C@H](C(C)C)NC(=O)c2nc1sc2C ; measured MIC: 1

Lookup result for CNC(=O)C[C@@H]1NC(=O)c2csc(n2)-c2ccc(-c3nc(NC(=O)CCCN(C)C)cs3)nc2-c2csc(n2)-c2csc(n2)[C@H]([C@@H](O)c2ccccc2)NC(=O)CNC(=O)c2nc(sc2COC)[C@H](C(C)C)NC(=O)c2nc1sc2C ; measured MIC: 1

***
Lookup result for CNC(=O)C[C@@H]1NC(=O)c2csc(n2)-c2ccc(-c3nc(NC(=O)O[C@H]4C[C@H](C(=O)O)C4)cs3)nc2-c2csc(n2)-c2csc(n2)[C@H]([C@@H](O)c2ccccc2)NC(=O)CNC(=O)c2nc(sc2COC)[C@H](C(C)C)NC(=O)c2nc1sc2C ; measured MIC: 0.125

###

system: Streptococcus pneumoniae; experiment: Antibacterial activity against Streptococcus pneumoniae by CLSI M07-A8 method; type: functional, organism-based
Active and inactive are the calls of the source. The rule behind the calls is not given here.
measurement label: Activity

Lookup result for CNC(=O)C[C@@H]1NC(=O)c2csc(n2)-c2ccc(-c3nc(NC(=O)COCC(=O)O)cs3)nc2-c2csc(n2)-c2csc(n2)[C@H]([C@@H](O)c2ccccc2)NC(=O)CNC(=O)c2nc(sc2COC)[C@H](C(C)C)NC(=O)c2nc1sc2C ; measured Activity: Active

Lookup result for CNC(=O)C[C@@H]1NC(=O)c2csc(n2)-c2ccc(-c3nc(NC(=O)O[C@H]4C[C@@H](C(=O)O)C4)cs3)nc2-c2csc(n2)-c2csc(n2)[C@H]([C@@H](O)c2ccccc2)NC(=O)CNC(=O)c2nc(sc2COC)[C@H](C(C)C)NC(=O)c2nc1sc2C ; measured Activity: Active

Lookup result for CNC(=O)C[C@@H]1NC(=O)c2csc(n2)-c2ccc(-c3nc(NC(=O)O[C@H]4CC[C@@H](C(=O)O)CC4)cs3)nc2-c2csc(n2)-c2csc(n2)[C@H]([C@@H](O)c2ccccc2)NC(=O)CNC(=O)c2nc(sc2COC)[C@H](C(C)C)NC(=O)c2nc1sc2C ; measured Activity: Active

Lookup result for CNC(=O)C[C@@H]1NC(=O)c2csc(n2)-c2ccc(-c3nc(NS(N)(=O)=O)cs3)nc2-c2csc(n2)-c2csc(n2)[C@H]([C@@H](O)c2ccccc2)NC(=O)CNC(=O)c2nc(sc2COC)[C@H](C(C)C)NC(=O)c2nc1sc2C ; measured Activity: Active

###

system: Enterococcus faecium; assay: Antibacterial activity against Enterococcus faecium 7130724 by CLSI M07-A8 method; type: functional
Threshold check on MIC: strictly below 4 µg/mL is class 1; on or above 4 µg/mL is class 0.

Use the examples below as a reference point.
Query string: Does the reported MIC of CNC(=O)C[C@@H]1NC(=O)c2csc(n2)-c2ccc(-c3nc(NC(=O)c4ccc(C(=O)O)cn4)cs3)nc2-c2csc(n2)-c2csc(n2)[C@H]([C@@H](O)c2ccccc2)NC(=O)CNC(=O)c2nc(sc2COC)[C@H](C(C)C)NC(=O)c2nc1sc2C stay below 4 µg/mL?
Result string: class 1

Query string: Does the reported MIC of CNC(=O)C[C@@H]1NC(=O)c2csc(n2)-c2ccc(-c3nc(NC(=O)[C@H]4CC[C@@H](C(=O)O)C4)cs3)nc2-c2csc(n2)-c2csc(n2)[C@H]([C@@H](O)c2ccccc2)NC(=O)CNC(=O)c2nc(sc2COC)[C@H](C(C)C)NC(=O)c2nc1sc2C stay below 4 µg/mL?
Result string: class 1

***
Query string: Does the reported MIC of CNC(=O)C[C@@H]1NC(=O)c2csc(n2)-c2ccc(-c3nc(NC(=O)O[C@H]4CC[C@@H](C(=O)O)CC4)cs3)nc2-c2csc(n2)-c2csc(n2)[C@H]([C@@H](O)c2ccccc2)NC(=O)CNC(=O)c2nc(sc2COC)[C@H](C(C)C)NC(=O)c2nc1sc2C stay below 4 µg/mL?
Result string: class 1

Query string: Does the reported MIC of CNC(=O)C[C@@H]1NC(=O)c2csc(n2)-c2ccc(-c3nc(NC(=O)[C@H](CN)CCC(=O)O)cs3)nc2-c2csc(n2)-c2csc(n2)[C@H]([C@@H](O)c2ccccc2)NC(=O)CNC(=O)c2nc(sc2COC)[C@H](C(C)C)NC(=O)c2nc1sc2C stay below 4 µg/mL?
Result string: class 1

Query string: Does the reported MIC of CNC(=O)C[C@@H]1NC(=O)c2csc(n2)-c2ccc(-c3nc(NC(=O)COCC(=O)O)cs3)nc2-c2csc(n2)-c2csc(n2)[C@H]([C@@H](O)c2ccccc2)NC(=O)CNC(=O)c2nc(sc2COC)[C@H](C(C)C)NC(=O)c2nc1sc2C stay below 4 µg/mL?
Result string: class 1

Query string: Does the reported MIC of CNC(=O)C[C@@H]1NC(=O)c2csc(n2)-c2ccc(-c3nc(NC(=O)OC(C)(C)C)cs3)nc2-c2csc(n2)-c2csc(n2)[C@H]([C@@H](O)c2ccccc2)NC(=O)CNC(=O)c2nc(sc2COC)[C@H](C(C)C)NC(=O)c2nc1sc2C stay below 4 µg/mL?
Result string: class 0

Query string: Does the reported MIC of CNC(=O)C[C@@H]1NC(=O)c2csc(n2)-c2ccc(-c3nc(NC(=O)c4ccnc(C(=O)O)c4)cs3)nc2-c2csc(n2)-c2csc(n2)[C@H]([C@@H](O)c2ccccc2)NC(=O)CNC(=O)c2nc(sc2COC)[C@H](C(C)C)NC(=O)c2nc1sc2C stay below 4 µg/mL?
Result string: class 0

###

system: Enterococcus faecalis; assay: Antibacterial activity against Enterococcus faecalis ATCC 29212 by CLSI M07-A8 method; type: functional
measurement label: MIC (µg/mL)
Write the answer as a number in µg/mL, unit excluded.

Example entries and their recorded answers appear below.
Lookup result for CNC(=O)C[C@@H]1NC(=O)c2csc(n2)-c2ccc(-c3nc(NC(=O)[C@H](CN)CCC(=O)O)cs3)nc2-c2csc(n2)-c2csc(n2)[C@H]([C@@H](O)c2ccccc2)NC(=O)CNC(=O)c2nc(sc2COC)[C@H](C(C)C)NC(=O)c2nc1sc2C ; measured MIC: 0.5

Lookup result for CNC(=O)C[C@@H]1NC(=O)c2csc(n2)-c2ccc(-c3nc(NC(=O)OCC(C)(C)N)cs3)nc2-c2csc(n2)-c2csc(n2)[C@H]([C@@H](O)c2ccccc2)NC(=O)CNC(=O)c2nc(sc2COC)[C@H](C(C)C)NC(=O)c2nc1sc2C ; measured MIC: 1

Lookup result for CNC(=O)C[C@@H]1NC(=O)c2csc(n2)-c2ccc(-c3nc(NC(C)=O)cs3)nc2-c2csc(n2)-c2csc(n2)[C@H]([C@@H](O)c2ccccc2)NC(=O)CNC(=O)c2nc(sc2COC)[C@H](C(C)C)NC(=O)c2nc1sc2C ; measured MIC: 1

***
Lookup result for CNC(=O)C[C@@H]1NC(=O)c2csc(n2)-c2ccc(-c3nc(NC(=O)CCCCC(=O)OC)cs3)nc2-c2csc(n2)-c2csc(n2)[C@H]([C@@H](O)c2ccccc2)NC(=O)CNC(=O)c2nc(sc2COC)[C@H](C(C)C)NC(=O)c2nc1sc2C ; measured MIC: 4
